- test.protocol: Pharmacokinetics of Compound 1 in combination with MK-3475 in subjects with various cancers
- Type: in vivo, human
- setup.conditions: human, plasma, oral, 300 mg, Cohort 6, 300 mg, first dose, geometric mean
measurement.name: Cmax (nM)
Write it as a number; the unit nM goes unstated.

GET /value?item= NS(=O)(=O)NCCNc1nonc1C(=NO)Nc1ccc(F)c(Br)c1 &field=Cmax returns 1790

###

- test.protocol: Pharmacokinetics of Compound 1 in combination with MK-3475 in subjects with various cancers
- Type: in vivo, human
- setup.conditions: human, plasma, oral, 300 mg, by dose, 300 mg BID, steady state C1D8, mean ± SD
measurement.name: Cmax (nM)
Give your result in nM as a bare value.

So, NS(=O)(=O)NCCNc1nonc1C(=NO)Nc1ccc(F)c(Br)c1 ? Its Cmax was 2740

###

- test.protocol: Dose-escalation study of Compound 1 pharmacokinetics in subjects with advanced malignancies (tablets of Formulations 1 and/or 3, fasted; food effect cohort)
- Type: in vivo, human
- setup.conditions: human, plasma, oral, 500 mg, 500 mg BID, steady state, geometric mean; read-out: AUC0-t
measurement.name: AUC(0-t) (µM·h)
# number only, unit µM·h dropped from output

What the record says about NS(=O)(=O)NCCNc1nonc1C(=NO)Nc1ccc(F)c(Br)c1 [Compound 1] : AUC(0-t) is 17.3

###

- test.protocol: Pharmacokinetics of Compound 1 in combination with MK-3475 in subjects with various cancers
- Type: in vivo, human
- setup.conditions: human, plasma, oral, 300 mg, Cohort 6, 300 mg, first dose, mean ± SD; read-out: AUC0-t
measurement.name: AUC(0-t) (µM·h)
Quick note: give the figure in µM·h, leave out the unit.

Value of measured AUC(0-t) for the entry NS(=O)(=O)NCCNc1nonc1C(=NO)Nc1ccc(F)c(Br)c1 : 7.47

###

- test.protocol: Pharmacokinetics of Compound 1 in combination with MK-3475 in subjects with various cancers
- Assay type: in vivo, human
- setup.conditions: human, plasma, oral, 25 mg, Cohort 1, 25 mg BID, steady state C1D8, geometric mean
measurement.name: Cmax (nM)
The answer is to be given in nM; state only the numeric part.

// recorded Cmax for NS(=O)(=O)NCCNc1nonc1C(=NO)Nc1ccc(F)c(Br)c1 : 276

###

- test.protocol: Pharmacokinetics of Compound 1 in combination with MK-3475 in subjects with various cancers
- Type: in vivo, human
- setup.conditions: human, plasma, oral, 25 mg, Cohort 1, 25 mg BID, steady state C1D8, mean ± SD
- Protocol: The subjects were not limited to a specific cancers and study include subjects with various cancers. […] One treatment cycle consisted of 21 days. […] The RP2D was selected from the evaluated safety expansions. […] Pharmacokinetic samples were obtained at the visits of Cycle 1 Day 1, Cycle 1 Day 8 and Cycle 2 Day 1. […] The exact date and time of the PK blood draws were recorded in the eCRF along with the date and time of the last dose of study drug and details of the last meal preceding the blood draw. […]
measurement.name: Cmax (nM)
Kindly answer with a numeric value in nM, unit omitted.

For record NS(=O)(=O)NCCNc1nonc1C(=NO)Nc1ccc(F)c(Br)c1 [Compound 1] the listed Cmax is 307

###

- test.protocol: Pharmacokinetics of Compound 1 in combination with MK-3475 in subjects with various cancers
- Format: in vivo, human
- setup.conditions: human, plasma, oral, 100 mg, Diagnosis DLBCL, first dose, mean ± SD
measurement.name: Cmax (nM)
Reply numerically in nM, unit not repeated.

Consider NS(=O)(=O)NCCNc1nonc1C(=NO)Nc1ccc(F)c(Br)c1 [Compound 1] . Its measured Cmax is 732

###

- test.protocol: Dose-escalation study of Compound 1 pharmacokinetics in subjects with advanced malignancies (tablets of Formulations 1 and/or 3, fasted; food effect cohort)
- Type: in vivo, human
- setup.conditions: human, plasma, oral, 100 mg, 100 mg BID, steady state, geometric mean; read-out: AUC0-t
measurement.name: AUC(0-t)

Memo: NS(=O)(=O)NCCNc1nonc1C(=NO)Nc1ccc(F)c(Br)c1 , reported AUC(0-t): 4.97 µM·h

###

- test.protocol: Dose-escalation study of Compound 1 pharmacokinetics in subjects with advanced malignancies (tablets of Formulations 1 and/or 3, fasted; food effect cohort)
- Type: in vivo, human
- setup.conditions: human, plasma, oral, 300 mg, 300 mg BID, steady state, mean ± SD; read-out: AUC0-t
measurement.name: AUC(0-t) (µM·h)
The response must be a number in µM·h with no trailing unit.

In plain terms, NS(=O)(=O)NCCNc1nonc1C(=NO)Nc1ccc(F)c(Br)c1 has a documented AUC(0-t) of 8.92

###

- test.protocol: Pharmacokinetics of Compound 1 in combination with MK-3475 in subjects with various cancers
- Format: in vivo, human
- setup.conditions: human, plasma, oral, 50 mg, Cohort 4 (MEL), 50 mg BID, steady state C1D8, median; read-out: tmax
measurement.name: tmax

tmax measured on NS(=O)(=O)NCCNc1nonc1C(=NO)Nc1ccc(F)c(Br)c1 [Compound 1] = 1.5 h

###

- test.protocol: Pharmacokinetics of Compound 1 in combination with MK-3475 in subjects with various cancers
- Type: in vivo, human
- setup.conditions: human, plasma, oral, 100 mg, Diagnosis OC, first dose, mean ± SD; read-out: AUC0-t
measurement.name: AUC(0-t)

The compound NS(=O)(=O)NCCNc1nonc1C(=NO)Nc1ccc(F)c(Br)c1 [Compound 1] showed AUC(0-t) equal to 3.16 µM·h

###

- test.protocol: Dose-escalation study of Compound 1 pharmacokinetics in subjects with advanced malignancies (tablets of Formulations 1 and/or 3, fasted; food effect cohort)
- Format: in vivo, human
- setup.conditions: human, plasma, oral, 600 mg, 600 mg BID, food effect cohort, Fasted, mean ± SD; read-out: AUC0-12 h
measurement.name: AUC(0-t) (µM·h)
Enter your answer as a number in µM·h; do not include the unit.

AUC(0-t) recorded for this compound, NS(=O)(=O)NCCNc1nonc1C(=NO)Nc1ccc(F)c(Br)c1 , is 22.9

###

- test.protocol: Pharmacokinetics of Compound 1 in combination with MK-3475 in subjects with various cancers
- Type: in vivo, human
- setup.conditions: Diagnosis NSCLC PD-L1 Low/NE, first dose, mean ± SD
measurement.name: Cmax (nM)
Give the value in nM but do not write nM after it.

Per the record, NS(=O)(=O)NCCNc1nonc1C(=NO)Nc1ccc(F)c(Br)c1 has Cmax of 914

###

- test.protocol: Dose-escalation study of Compound 1 pharmacokinetics in subjects with advanced malignancies (tablets of Formulations 1 and/or 3, fasted; food effect cohort)
- Type: in vivo, human
- setup.conditions: human, plasma, oral, 500 mg, 500 mg BID, steady state, geometric mean; read-out: t1/2 (converted)
- Excerpt: Thus, Cmax, Cmin and Tmax were taken directly from the observed plasma concentration data or imputed in some cases. The terminal-phase disposition rate constant (λz) was estimated using a log-linear regression of the concentration data in the terminal disposition phase, and t1/2 was estimated as ln(2)/λz. AUC0-t and AUC0-τ was estimated using the linear trapezoidal rule for increasing concentrations and the log-trapezoidal rule for decreasing concentrations. […]
measurement.name: half-life (h)
// return numeric value only (unit: h, not printed)

In plain terms, NS(=O)(=O)NCCNc1nonc1C(=NO)Nc1ccc(F)c(Br)c1 has a documented half-life of 2.4

###

- test.protocol: Pharmacokinetics of Compound 1 in combination with MK-3475 in subjects with various cancers
- Type: in vivo, human
- setup.conditions: human, plasma, oral, 100 mg, Cohort 3, 100 mg, first dose, mean ± SD
measurement.name: Cmax (nM)
Report the figure in nM without appending any unit label.

Memo: NS(=O)(=O)NCCNc1nonc1C(=NO)Nc1ccc(F)c(Br)c1 [Compound 1] , reported Cmax: 632

###

- test.protocol: Pharmacokinetics of Compound 1 in combination with MK-3475 in subjects with various cancers
- Format: in vivo, human
- setup.conditions: human, plasma, oral, 300 mg, Cohort 7, 300 mg BID, steady state C1D8, mean ± SD
measurement.name: Cmax (nM)
Just the number in nM, nothing appended.

Looking up NS(=O)(=O)NCCNc1nonc1C(=NO)Nc1ccc(F)c(Br)c1 , I found its Cmax recorded as 2750

###

- test.protocol: Pharmacokinetics of Compound 1 in combination with MK-3475 in subjects with various cancers
- Assay type: in vivo, human
- setup.conditions: human, plasma, oral, 300 mg, Cohort 7, 300 mg, first dose, geometric mean
measurement.name: Cmax (nM)
The response must be a number in nM with no trailing unit.

The compound NS(=O)(=O)NCCNc1nonc1C(=NO)Nc1ccc(F)c(Br)c1 showed Cmax equal to 2170

###

- test.protocol: Dose-escalation study of Compound 1 pharmacokinetics in subjects with advanced malignancies (tablets of Formulations 1 and/or 3, fasted; food effect cohort)
- Type: in vivo, human
- setup.conditions: 400 mg BID, steady state, mean ± SD
measurement.name: Cmax (µM)
State just the number; it will be interpreted in µM.

Per the record, NS(=O)(=O)NCCNc1nonc1C(=NO)Nc1ccc(F)c(Br)c1 [Compound 1] has Cmax of 4.39
